Stability: recorded values
assay: Stability of the compound in PBS containing 10% DMSO at 25 degC measured after 6 hrs by HPLC analysis; format: physicochemical; details: buffer
Enter your answer as a number in %; do not include the unit.

# compound, Stability / %
data = [
    ("CC1CCCCC1NC(=O)CSc1nc2ccccc2c(=O)[nH]1 (configuration not stated)", 122),
]

Find the recorded Stability belonging to CC1CCCC(NC(=O)CSc2nc3ccccc3c(=O)[nH]2)C1 (configuration not stated) and report it. 102

Find the recorded Stability belonging to O=C(CSc1nc2ccccc2c(=O)[nH]1)NC1CCCCC1 and report it. 100

Find the recorded Stability belonging to CC1CCC(NC(=O)CSc2nc3ccccc3c(=O)[nH]2)CC1 (configuration not stated) and report it. 97

Find the recorded Stability belonging to O=C(CSc1nc2ccccc2c(=O)[nH]1)NC1CCCCCC1 and report it. 90

Find the recorded Stability belonging to O=C(CSc1nc2ccccc2c(=O)[nH]1)NCC1CCCCC1 and report it. 115

Find the recorded Stability belonging to C[C@H]1CC[C@H](NC(=O)CSc2nc3ccccc3c(=O)[nH]2)CC1 and report it. 67

* * *

species on record: Danio rerio; experiment: Toxicity in Zebrafish AB embryos assessed as morphological alteration by measuring effect on surface area of eyes at 3 to 20 uM measured at 2 to 5 days post fertilization by stereomicroscopic method; type: organism-based; details: in vivo
endpoint.label: Activity

Consider the worked cases shown below.
# compound, Activity
records = [
    ("O=C(CSc1nc2ccccc2c(=O)[nH]1)NC1CCCCC1", "Non-Toxic"),
    ("O=C(CSc1nc2ccccc2c(=O)[nH]1)NCC1CCCCC1", "Non-Toxic"),
    ("CC1CCCCC1NC(=O)CSc1nc2ccccc2c(=O)[nH]1 (configuration not stated)", "Non-Toxic"),
    ("O=C(CSc1nc2ccccc2c(=O)[nH]1)NC1CCCCCC1", "Non-Toxic"),
    ("CC1CCC(NC(=O)CSc2nc3ccccc3c(=O)[nH]2)CC1 (configuration not stated)", "Non-Toxic"),
]

Find the recorded Activity belonging to C[C@H]1CC[C@H](NC(=O)CSc2nc3ccccc3c(=O)[nH]2)CC1 and report it. Non-Toxic

Find the recorded Activity belonging to CC1CCCC(NC(=O)CSc2nc3ccccc3c(=O)[nH]2)C1 (configuration not stated) and report it. Non-Toxic

* * *

species on record: Danio rerio; assay: Cardiotoxicity in Zebrafish AB embryos assessed as heart beat rate at 20 uM measured at 5 days post fertilization by stereomicroscopic method (reference value: 148.1 to 158.2 bpm); type: organism-based; settings: in vivo, 120 h
endpoint.label: Activity (bpm)
Enter your answer as a number in bpm; do not include the unit.

# molecule, Activity, bpm
rows = [
    ("O=C(CSc1nc2ccccc2c(=O)[nH]1)NC1CCCCCC1", 153.8),
    ("CC1CCC(NC(=O)CSc2nc3ccccc3c(=O)[nH]2)CC1 (configuration not stated)", 152.2),
    ("CC1CCCCC1NC(=O)CSc1nc2ccccc2c(=O)[nH]1 (configuration not stated)", 160.6),
    ("C[C@H]1CC[C@H](NC(=O)CSc2nc3ccccc3c(=O)[nH]2)CC1", 153.8),
    ("CC1CCCC(NC(=O)CSc2nc3ccccc3c(=O)[nH]2)C1 (configuration not stated)", 160.9),
]

Find the recorded Activity belonging to O=C(CSc1nc2ccccc2c(=O)[nH]1)NCC1CCCCC1 and report it. 152.5

Find the recorded Activity belonging to O=C(CSc1nc2ccccc2c(=O)[nH]1)NC1CCCCC1 and report it. 158.4
